- Test Description: The drug is tested on WLS-006 corresponding to human gut metagenome with ENA study accession number: PRJEB37062 and ENA sample accession number: ERS12561741 for biotransformation under anaerobic condition. The drug concentrations were measured over 9 timepoints collected between 0 and 24 hours of incubation by liquid-chromatography-coupled mass spectrometry (LC–MS); further: call rule not given here
- Details: 2 µM

Compound: COc1c(C)c2c(c(O)c1C/C=C(\C)CCC(=O)OCCN1CCOCC1)C(=O)OC2 [MYCOPHENOLATE MOFETIL]
Bacterial Biotransformation: Compound metabolized
--
Compound: OC(Cn1cncn1)(Cn1cncn1)c1ccc(F)cc1F
Bacterial Biotransformation: Compound metabolized
--
Compound: CC(C(=O)O)c1ccc2c(c1)Cc1cccnc1O2 (stereo not given)
Bacterial Biotransformation: Compound metabolized
--
Compound: CN1CCN(C2=Nc3cc(Cl)ccc3Nc3ccccc32)CC1
Bacterial Biotransformation: Compound NOT metabolized
--
Compound: CC[C@H](C)C(=O)O[C@H]1C[C@@H](C)C=C2C=C[C@H](C)[C@H](CC[C@@H]3C[C@@H](O)CC(=O)O3)[C@H]21
Bacterial Biotransformation: Compound NOT metabolized
--
Compound: CCCCC(=O)N(Cc1ccc(-c2ccccc2-c2nnn[nH]2)cc1)[C@H](C(=O)O)C(C)C
Bacterial Biotransformation: Compound metabolized
--
Compound: CN(C)C(=O)C(CCN1CCC(O)(c2ccc(Cl)cc2)CC1)(c1ccccc1)c1ccccc1 [LOPERAMIDE]
Bacterial Biotransformation: Compound metabolized
--
Compound: CCc1nc(N)nc(N)c1-c1ccc(Cl)cc1
Bacterial Biotransformation: Compound NOT metabolized
--
Compound: CC(CN1c2ccccc2Sc2ccccc21)N(C)C (stereo not given)
Bacterial Biotransformation: Compound metabolized
--
Compound: Fc1ccc([C@@H]2CCNC[C@H]2COc2ccc3c(c2)OCO3)cc1
Bacterial Biotransformation: Compound NOT metabolized
